// data source = ChEMBL document CHEMBL4834434

biological target: Glutamate NMDA receptor; assay: Positive allosteric modulation of ICR mouse primary cortical neuron NMDA receptor assessed as potentiation of glycine-induced current in presence of 100 uM NMDA by whole-cell patch clamp method; type: tissue-based, Brain
pEC50: −log10 of the molar value.
Parameter Measured: pEC50

Compound: Cc1cc(C)n(Cc2ccc(C(=O)Nc3ccc(Br)cc3C)o2)n1
Parameter Measured: pEC50
Reading: 4.93

---

test: Half life in ICR mouse at 3 mg/kg, iv measured up to 24 hrs by HPLC-MS/MS analysis; format: ADME, organism-based; conditions: in vivo
# half-life listing for each entry below

Compound: O=C(Nc1cc(Cl)cc(Cl)c1)c1ccc(Cn2nc(C(F)(F)F)cc2C(F)(F)F)o1
half-life, h: 5

Compound: Cc1cc(C)n(Cc2ccc(C(=O)Nc3ccc(Cl)c(Cl)c3)s2)n1
half-life, h: 2.8
